The measurements presented in this section are drawn from ChEMBL document CHEMBL1132570.

For each of the compounds below, state its log10 of GI50.
Tested on: UACC-62
TEST NAME: In vitro cytotoxicity against UACC-62 (Human melanoma) cell line.
Type: functional
Kindly note that the scale is log10 and the underlying GI50 is in µM.

q: # get_value(readout='log10 of GI50', item= "O=C1c2ccccc2-c2c1c1ccccc1c(=O)n2CCCCCO" )
a: 1.16

q: Follow-up item: "O=C1c2ccccc2-c2c1c1ccccc1c(=O)n2CCCCO"
a: 0.64

q: Further, for "O=C1c2ccccc2-c2c1c1ccccc1c(=O)n2C1CC1" ?
a: 1.92

q: Now give it for "CCCCn1c2c(c3cc(OC)c(OC)cc3c1=O)C(=O)c1cc3c(cc1-2)OCO3" too.
a: 1.32

q: Also check "CCn1c2c(c3cc(OC)c(OC)cc3c1=O)C(=O)c1cc3c(cc1-2)OCO3"
a: 0.32
